Form field: composite z-score (one value per entry).
- System: Neuregulin-1 EGF-like domain
- Protocol details: binders of neuregulin-1 EGF-like domain, primary screen, biochemical, small-molecule microarray, 635 nm fluorescence (AID 1081);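 further: binding of the protein to compounds printed on small-molecule microarray slides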
- Reported conditions: small-molecule microarray binding, higher = more signal
Reported property: composite z-score

1) CCOC(=O)C[C@H]1[C@H](OC(=O)Cc2ccc3c(c2)OCO3)[C@@H](NC(=O)C2CCCCC2)c2cc(OCCCO)ccc2N1C(=O)Cc1ccc(OC)cc1 : 0.86
2) CCCNC(=O)[C@@]1(c2ccc([N+](=O)[O-])cc2)CC(=O)N(CC23CC4CC(CC(C4)C2)C3)[C@@H]1c1ccc(CO)cc1 : 0.791
3) COC(=O)C(CC#Cc1ccc2c(c1)[C@]1(C(=O)N2)[C@H](C(=O)NC[C@H](O)c2ccccc2)[C@H]2C(=O)O[C@H](c3ccccc3)[C@H](c3ccccc3)N2[C@@H]1c1ccc(OCCO)cc1)C(=O)OC : 1.3
4) O=C1OCCC=C[C@H]2OC34C=CCN(c5ccc6ccccc6c5)C(=O)[C@H]3N(CCCCCO)C(=O)[C@@H]4C12 (stereo partly specified) : 1.57
5) CC=CC(O)C1C=CC2C(=O)N(c3ccccc3)C(=O)C2N1Nc1ccc(C(C)C)cc1 (stereo unspecified) : 1.26
6) C=CCC(OC(C)=O)[C@@H]1[C@@H](N(Cc2cccc3ccccc23)C(=O)c2ccc(C)cc2)c2cc(OCCCO)ccc2N1C(=O)Cc1ccc(OC)cc1 (stereo partly specified) : -0.391
